Values from PubChem BioAssay (NCI)

Tested on: HT29 colon
Test: NCI tumour cell line growth inhibition, 48 h; in the data active means GI50 below about 0.43 µM; inactive means the rest
Please reply with one of these outcomes: yes (1) for active, no (0) for inactive

{"columns": ["molecule", "groupLabel"],
 "data": [
  ["Fc1ccc(C2CC(c3cccc(Nc4ccncc4)c3)=NN2c2ccccc2)cc1 (stereo not drawn)", "no (0)"],
  ["Cc1cc(NS(=O)(=O)c2ccc(-c3cnc(C4CC4)o3)cc2)ccc1Cl", "yes (1)"],
  ["COc1cccc(N2C(=N)/C(=C3\\Nc4ccccc4S3)CC2=O)c1", "no (0)"],
  ["Cn1ccc(S(=O)(=O)N2CCC[C@H](Nc3nccc(-c4c(-c5cccc(O)c5)nc5occn45)n3)C2)n1", "no (0)"],
  ["Oc1ccc(/C=N/NC(=S)Nc2ccccc2)nc1", "no (0)"]
]}

# outcome recorded in this test, key = `[CH3][Ge]([CH3])([CH2]CC#N)[S]c1ccccc1` no (0)

# outcome recorded in this test, key = `CCN(CC)CCOc1ccc2c(-c3ccccc3)c(-c3ccc(OC)cc3)c(=O)oc2c1` no (0)

# outcome recorded in this test, key = CCCCCCCCCCCCCCCC(=O)OCC1OC(OCCCC)[C@H](O[C@@H]2OC(C)C(OC(=O)CCC)C(O)C2O)C(O)C1O (stereo partly drawn) no (0)

* * *

System: OVCAR-3 ovarian
Test: NCI tumour cell line growth inhibition, 48 h
Threshold check on TGI: at or above 30 µM gives rule met, strictly below gives rule not met.

Use these answered entries as a reference point.
{"columns": ["compound", "subjectOfTest", "groupLabel"],
 "data": [
  ["Cc1c(CN2CCOCC2)c(CN2CCOCC2)c(C)n1-c1ccc(Cl)cn1", "OVCAR-3 ovarian", "rule met"],
  ["NC(=S)N/N=C/C(O[C@@H](/C=N/NC(N)=S)CO)n1cnc2c(N)ncnc21 (stereo partly specified)", "OVCAR-3 ovarian", "rule met"],
  ["CS(=O)(=O)ON1C(=O)c2ccc(N)cc2C1=O", "OVCAR-3 ovarian", "rule met"],
  ["CCOC(=O)CCCc1cc(=O)c2c(C)c3[nH]c4ccc(Cl)cc4c3c(C)c2[nH]1", "OVCAR-3 ovarian", "rule met"]
]}

Let us examine a further case.
hey, is TGI for this one >= 30 µM? COc1ccc(C(=O)C(c2ccc(OC)cc2)C2(O)C(=O)Nc3c(Cl)cc(Cl)cc32)cc1 (stereo unspecified) rule met

* * *

System: OVCAR-8 ovarian
Assay: NCI tumour cell line growth inhibition, 48 h
Field: GI50. Provide a value for each of the molecules that follow.

Completed entries (count: 3):
{"columns": ["molecule", "value"],
 "data": [
  ["CC(C)(Oc1cccc(N2CCC[C@@H](C(=O)N(Cc3ccc(-c4cn[nH]c4)cc3)C3CC3)C2)c1)C(=O)N1CCNCC1", "18.6 µM"],
  ["CCN1C[C@@H](C)n2c(c(O)c3c(=O)n(Cc4ccc(F)c(Cl)c4)nc(C(=O)NC)c32)C1=O", "3.34 µM"],
  ["O=C(Nc1nc2ccc(OC(F)(F)F)cc2s1)c1ccc(F)cc1", "4.22 µM"]
]}

Consider the additional molecule presented here.
Would you kindly share the measured GI50 for CC(=O)CCC[C@@H](C)[C@@H]1O[C@H]([C@@]2(C)CCC(=O)O2)CC2[C@H]1OC(=O)C21CC1 (some centres undefined) ? > 100 µM
